Data origin: paper PMC13193388

target: purified recombinant HIS epitope-tagged NOTCH3 extracellular domain (human, UniProt Q9UM47 40-1643, glycosylated); test: SPR
Sequence (Q9UM47 40-1643): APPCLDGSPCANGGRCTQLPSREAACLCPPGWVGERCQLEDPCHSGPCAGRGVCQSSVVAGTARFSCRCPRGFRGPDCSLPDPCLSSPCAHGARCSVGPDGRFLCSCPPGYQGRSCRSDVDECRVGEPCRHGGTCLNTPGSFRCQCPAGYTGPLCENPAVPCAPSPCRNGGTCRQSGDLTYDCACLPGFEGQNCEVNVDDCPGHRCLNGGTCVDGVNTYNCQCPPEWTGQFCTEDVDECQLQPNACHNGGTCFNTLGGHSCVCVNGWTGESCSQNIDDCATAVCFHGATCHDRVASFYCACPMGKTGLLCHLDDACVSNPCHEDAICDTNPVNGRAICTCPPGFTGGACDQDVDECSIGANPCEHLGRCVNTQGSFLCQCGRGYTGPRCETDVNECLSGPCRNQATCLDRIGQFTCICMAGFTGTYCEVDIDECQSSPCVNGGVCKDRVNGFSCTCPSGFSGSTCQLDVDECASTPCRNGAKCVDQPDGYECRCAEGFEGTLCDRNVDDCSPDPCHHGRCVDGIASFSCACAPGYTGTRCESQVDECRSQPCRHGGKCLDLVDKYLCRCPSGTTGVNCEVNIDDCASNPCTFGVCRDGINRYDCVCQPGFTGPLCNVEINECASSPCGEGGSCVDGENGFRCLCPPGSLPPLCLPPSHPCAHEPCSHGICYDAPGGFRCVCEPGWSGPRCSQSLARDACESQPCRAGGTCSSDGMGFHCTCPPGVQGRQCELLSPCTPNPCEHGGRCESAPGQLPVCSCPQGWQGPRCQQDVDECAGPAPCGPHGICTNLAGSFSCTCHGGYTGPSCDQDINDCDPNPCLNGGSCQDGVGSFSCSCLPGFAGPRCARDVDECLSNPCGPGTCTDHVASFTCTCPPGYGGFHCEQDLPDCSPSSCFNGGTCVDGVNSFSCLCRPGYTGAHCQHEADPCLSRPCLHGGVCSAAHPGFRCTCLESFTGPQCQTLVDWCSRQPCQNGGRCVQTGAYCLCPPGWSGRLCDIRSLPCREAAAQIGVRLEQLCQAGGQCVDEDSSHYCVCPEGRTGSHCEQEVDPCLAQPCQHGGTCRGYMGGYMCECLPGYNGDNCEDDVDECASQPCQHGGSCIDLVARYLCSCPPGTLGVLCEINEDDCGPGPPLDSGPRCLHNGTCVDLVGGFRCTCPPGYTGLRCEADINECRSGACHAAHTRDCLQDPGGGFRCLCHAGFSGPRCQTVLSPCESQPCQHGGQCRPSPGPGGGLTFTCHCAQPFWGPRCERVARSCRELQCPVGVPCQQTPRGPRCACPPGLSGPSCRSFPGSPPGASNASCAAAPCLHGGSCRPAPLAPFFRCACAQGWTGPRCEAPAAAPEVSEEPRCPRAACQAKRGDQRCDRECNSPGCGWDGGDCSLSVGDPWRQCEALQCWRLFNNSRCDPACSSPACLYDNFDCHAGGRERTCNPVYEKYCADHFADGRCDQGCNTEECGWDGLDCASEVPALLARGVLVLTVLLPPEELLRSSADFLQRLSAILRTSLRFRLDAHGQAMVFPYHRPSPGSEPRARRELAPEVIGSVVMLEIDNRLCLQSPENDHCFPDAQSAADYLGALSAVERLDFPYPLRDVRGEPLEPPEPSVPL
measurementType: Kd (nM)
Give the value in nM but do not write nM after it.

EKYGGGHFADGR [control peptide (EKYGGGHFADGR)] | 1180

Here's the next entry for you.
Suppose we examine the binder EKYCADHFADGR [N34 peptide] ; what Kd value has been reported?
13.1
